Tested on: HCT-116
method: Cytotoxicity against human HCT116 cells assessed as growth inhibition at 50 uM after 48 hrs by SRB assay relative to control
Type: functional
assay_setup: HCT-116, 48 h, read-out: GI
Recorded inhibition of growth at 50 µM for the following compounds
experimental_readout: inhibition of growth at 50 µM (%)

{"molecule": "O=C1C(=O)N(CCn2cc(COc3cc(=O)oc4ccccc34)nn2)c2ccc(Cl)cc21", "tested_target": "HCT-116", "experimental_readout": "inhibition of growth at 50 µM", "number": 70}
{"molecule": "O=C1C(=O)N(CCCn2cc(COc3cc(=O)oc4ccccc34)nn2)c2ccc(Cl)cc21", "tested_target": "HCT-116", "experimental_readout": "inhibition of growth at 50 µM", "number": 68}
{"molecule": "O=C1C(=O)N(CCn2cc(COc3cc(=O)oc4ccccc34)nn2)c2ccc(Br)cc21", "tested_target": "HCT-116", "experimental_readout": "inhibition of growth at 50 µM", "number": 72}
{"molecule": "O=C1C(=O)N(CCn2cc(COc3cc(=O)oc4ccccc34)nn2)c2ccccc21", "tested_target": "HCT-116", "experimental_readout": "inhibition of growth at 50 µM", "number": 87}
{"molecule": "O=C1C(=O)N(CCCn2cc(COc3cc(=O)oc4ccccc34)nn2)c2ccc(Br)cc21", "tested_target": "HCT-116", "experimental_readout": "inhibition of growth at 50 µM", "number": 66}
{"molecule": "O=C1C(=O)N(CCCCCn2cc(COc3cc(=O)oc4ccccc34)nn2)c2ccc(I)cc21", "tested_target": "HCT-116", "experimental_readout": "inhibition of growth at 50 µM", "number": 36}
{"molecule": "O=C1C(=O)N(CCCCn2cc(COc3cc(=O)oc4ccccc34)nn2)c2ccccc21", "tested_target": "HCT-116", "experimental_readout": "inhibition of growth at 50 µM", "number": 72}
{"molecule": "O=C1C(=O)N(CCCn2cc(COc3cc(=O)oc4ccccc34)nn2)c2ccc(F)cc21", "tested_target": "HCT-116", "experimental_readout": "inhibition of growth at 50 µM", "number": 75}
{"molecule": "O=C1C(=O)N(CCCn2cc(COc3cc(=O)oc4ccccc34)nn2)c2ccc([N+](=O)[O-])cc21", "tested_target": "HCT-116", "experimental_readout": "inhibition of growth at 50 µM", "number": 60}
{"molecule": "O=C1C(=O)N(CCCn2cc(COc3cc(=O)oc4ccccc34)nn2)c2ccc(I)cc21", "tested_target": "HCT-116", "experimental_readout": "inhibition of growth at 50 µM", "number": 65}
{"molecule": "O=C1C(=O)N(CCCCn2cc(COc3cc(=O)oc4ccccc34)nn2)c2ccc(Br)cc21", "tested_target": "HCT-116", "experimental_readout": "inhibition of growth at 50 µM", "number": 59}
{"molecule": "O=C1C(=O)N(CCCCCn2cc(COc3cc(=O)oc4ccccc34)nn2)c2ccc(Cl)cc21", "tested_target": "HCT-116", "experimental_readout": "inhibition of growth at 50 µM", "number": 52}
{"molecule": "O=C1C(=O)N(CCCCCn2cc(COc3cc(=O)oc4ccccc34)nn2)c2ccccc21", "tested_target": "HCT-116", "experimental_readout": "inhibition of growth at 50 µM", "number": 65}
{"molecule": "O=C1C(=O)N(CCCCn2cc(COc3cc(=O)oc4ccccc34)nn2)c2ccc([N+](=O)[O-])cc21", "tested_target": "HCT-116", "experimental_readout": "inhibition of growth at 50 µM", "number": 53}
{"molecule": "O=C1C(=O)N(CCn2cc(COc3cc(=O)oc4ccccc34)nn2)c2ccc(F)cc21", "tested_target": "HCT-116", "experimental_readout": "inhibition of growth at 50 µM", "number": 80}
{"molecule": "O=C1C(=O)N(CCn2cc(COc3cc(=O)oc4ccccc34)nn2)c2ccc(I)cc21", "tested_target": "HCT-116", "experimental_readout": "inhibition of growth at 50 µM", "number": 70}
{"molecule": "O=C1C(=O)N(CCCCCn2cc(COc3cc(=O)oc4ccccc34)nn2)c2ccc(Br)cc21", "tested_target": "HCT-116", "experimental_readout": "inhibition of growth at 50 µM", "number": 43}
{"molecule": "COc1ccc2c(c1)C(=O)C(=O)N2CCn1cc(COc2cc(=O)oc3ccccc23)nn1", "tested_target": "HCT-116", "experimental_readout": "inhibition of growth at 50 µM", "number": 65}
{"molecule": "COc1ccc2c(c1)C(=O)C(=O)N2CCCCCn1cc(COc2cc(=O)oc3ccccc23)nn1", "tested_target": "HCT-116", "experimental_readout": "inhibition of growth at 50 µM", "number": 25}
{"molecule": "O=C1C(=O)N(CCCCn2cc(COc3cc(=O)oc4ccccc34)nn2)c2ccc(I)cc21", "tested_target": "HCT-116", "experimental_readout": "inhibition of growth at 50 µM", "number": 57}
{"molecule": "COc1ccc2c(c1)C(=O)C(=O)N2CCCn1cc(COc2cc(=O)oc3ccccc23)nn1", "tested_target": "HCT-116", "experimental_readout": "inhibition of growth at 50 µM", "number": 52}
{"molecule": "O=C1C(=O)N(CCCn2cc(COc3cc(=O)oc4ccccc34)nn2)c2ccccc21", "tested_target": "HCT-116", "experimental_readout": "inhibition of growth at 50 µM", "number": 79}
{"molecule": "O=C1C(=O)N(CCCCCn2cc(COc3cc(=O)oc4ccccc34)nn2)c2ccc(F)cc21", "tested_target": "HCT-116", "experimental_readout": "inhibition of growth at 50 µM", "number": 59}
{"molecule": "O=C1C(=O)N(CCn2cc(COc3cc(=O)oc4ccccc34)nn2)c2ccc([N+](=O)[O-])cc21", "tested_target": "HCT-116", "experimental_readout": "inhibition of growth at 50 µM", "number": 68}
{"molecule": "O=C1C(=O)N(CCCCn2cc(COc3cc(=O)oc4ccccc34)nn2)c2ccc(F)cc21", "tested_target": "HCT-116", "experimental_readout": "inhibition of growth at 50 µM", "number": 67}
{"molecule": "COc1ccc2c(c1)C(=O)C(=O)N2CCCCn1cc(COc2cc(=O)oc3ccccc23)nn1", "tested_target": "HCT-116", "experimental_readout": "inhibition of growth at 50 µM", "number": 48}
{"molecule": "O=C1C(=O)N(CCCCn2cc(COc3cc(=O)oc4ccccc34)nn2)c2ccc(Cl)cc21", "tested_target": "HCT-116", "experimental_readout": "inhibition of growth at 50 µM", "number": 62}
{"molecule": "O=C1C(=O)N(CCCCCn2cc(COc3cc(=O)oc4ccccc34)nn2)c2ccc([N+](=O)[O-])cc21", "tested_target": "HCT-116", "experimental_readout": "inhibition of growth at 50 µM", "number": 29}
